The reported numbers originate from ChEMBL document CHEMBL3877265.

# assaySummary: Antiproliferative activity against human HeLa cells after 48 hrs by SRB assay
# Type: functional
# conditionDescription: read-out: pGI50 (converted)
Hi there, I'd appreciate the recorded GI50 for every entry that follows.
Give bare numbers, in µM.

compound: Cn1c(=O)c(C(=O)NCCC(=O)N2CCN(c3ccc(C(F)(F)F)cc3)CC2)c(O)c2ccccc21
valueUnit: µM
GI50: 3.7
//
compound: Cn1c(=O)c(C(=O)NCCC(=O)N2CCN(c3ccc([N+](=O)[O-])cc3)CC2)c(O)c2ccccc21
valueUnit: µM
GI50: 0.94

Query compound follows.
Note down GI50 recorded for COc1ccc(C[C@@H](O)c2cc(OC)c(OC)c(OC)c2)cc1O [COMBRETASTATIN]
0.083
